- Target Under Test: Adrenergic receptor alpha-1 (Rattus norvegicus, UniProt P15823+P23944+P43140)
- Method Notes: Inhibition of saturable binding of [3H]prazosin to alpha1-site in rat cerebral cortical membranes.
- Format: cell membranes, Membrane
Property: Ki; scope: individual compounds

Below, each entry is followed by its recorded Ki result.
>  <Compound>
CCN1c2cccc(Cl)c2CC1C1=NCCN1 (centres undefined)

>  <Target Under Test>
Adrenergic receptor alpha-1 (Rattus norvegicus, UniProt P15823+P23944+P43140)

>  <Recorded Result>
1.9 nM

$$$$
>  <Compound>
CCN1c2ccccc2CC1C1=NCCN1 (centres undefined)

>  <Target Under Test>
Adrenergic receptor alpha-1 (Rattus norvegicus, UniProt P15823+P23944+P43140)

>  <Recorded Result>
3.72 nM

$$$$
>  <Compound>
Cl.c1ccc(N2c3ccccc3CC2C2=NCCN2)cc1 (centres undefined)

>  <Target Under Test>
Adrenergic receptor alpha-1 (Rattus norvegicus, UniProt P15823+P23944+P43140)

>  <Recorded Result>
8.4 nM

$$$$

Let's switch to this compound now.
Please list Ki recorded for the compound CCCN1c2ccccc2CC1C1=NCCN1 (centres undefined)
3.7 nM
